- target.or.system: Prostaglandin G/H synthase 2 (Homo sapiens, UniProt P35354)
- Sequence (P35354 whole entry): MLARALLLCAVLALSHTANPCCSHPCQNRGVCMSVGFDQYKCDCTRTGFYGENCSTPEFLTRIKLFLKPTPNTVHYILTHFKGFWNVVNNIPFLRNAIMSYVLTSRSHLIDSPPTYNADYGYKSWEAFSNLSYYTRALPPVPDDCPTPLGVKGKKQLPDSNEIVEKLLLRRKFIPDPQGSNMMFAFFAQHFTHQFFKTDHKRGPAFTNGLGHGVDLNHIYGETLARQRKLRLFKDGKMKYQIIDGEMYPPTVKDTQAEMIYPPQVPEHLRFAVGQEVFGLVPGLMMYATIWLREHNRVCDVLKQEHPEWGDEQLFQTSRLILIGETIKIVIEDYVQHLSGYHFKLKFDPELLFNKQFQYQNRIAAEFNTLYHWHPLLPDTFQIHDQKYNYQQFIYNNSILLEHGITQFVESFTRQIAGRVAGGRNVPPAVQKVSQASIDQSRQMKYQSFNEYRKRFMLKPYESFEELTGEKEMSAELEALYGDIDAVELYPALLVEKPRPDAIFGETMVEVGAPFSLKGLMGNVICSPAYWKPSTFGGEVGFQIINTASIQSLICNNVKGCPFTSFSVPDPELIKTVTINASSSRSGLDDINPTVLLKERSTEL
- method.summary: Competitive inhibition of human recombinant COX2 by enzyme immunoassay
reported.metric: IC50 (µM)

Solved entries (count: 2):
Ask | Fill in the blank: the reported IC50 of CS(=O)(=O)c1ccc(-n2nnnc2-c2ccc(F)cc2)cc1 is ____.
Reply | 15

Ask | CS(=O)(=O)c1ccc(-n2nnnc2-c2ccc([N+](=O)[O-])cc2)cc1 ?
Reply | 69

(a) CS(=O)(=O)c1ccc(-n2nnnc2-c2ccc(Cl)cc2)cc1
(b) NS(=O)(=O)c1ccc(-n2nnnc2-c2ccc(Cl)cc2)cc1
Ask | a or b : whose IC50 is greater? Answer format: the label of the selected item.
Reply | b
